tested on: HCV replicon in Huh7 cells; assay: HCV replicon cell-based assay; parameters: species or system HCV strain 1B; conditions: Hepatitis C virus, Huh-7; HCV replicon, Huh7 cells; read-out: EC50 range
readout-name: EC50

>>> value_reported("C=C[C@@H]1C[C@]1(NC(=O)[C@@H]1C[C@@H](Oc2nccc3ccccc23)CN1C(=O)[C@@H](NC(=O)CC(C)(C)C)C(C)(C)C)C(=O)NS(=O)(=O)C1CC1")
"100 to 1000 nM"
>>> value_reported("C=C[C@@H]1C[C@]1(NC(=O)[C@@H]1C[C@@H](Oc2nccc3cc(OC)ccc23)CN1C(=O)[C@@H](NC(=O)OC(C)(C)C)[C@H](C)CC)C(=O)NS(=O)(=O)C1CC1")
"< 100 nM"
>>> value_reported("C=CC1C[C@]1(NC(=O)[C@@H]1C[C@@H](Oc2nc(-c3ccc(N(CC)CC)cc3)cc3cc(OC)ccc23)CN1C(=O)[C@@H](NC(=O)OC(C)(C)C)C(C)(C)C)C(=O)NS(=O)(=O)C1CC1 (stereo partly shown)")
"< 100 nM"
>>> value_reported("C=C[C@@H]1C[C@]1(NC(=O)[C@@H]1C[C@@H](Oc2nccc3cc(OC)ccc23)CN1C(=O)[C@@H](NC(=O)OC(C)(C)C)[C@H](C)OC)C(=O)NS(=O)(=O)C1CC1")
"< 100 nM"
>>> value_reported("C=C[C@@H]1C[C@]1(NC(=O)[C@@H]1C[C@@H](Oc2nccc3ccccc23)CN1C(=O)[C@@H](NC(=O)OC(C)(C)C)C(C)(C)C)C(=O)NS(=O)(=O)C1CC1")
"< 100 nM"

Input: Identify EC50 associated with the molecule C=C[C@@H]1C[C@]1(NC(=O)[C@@H]1C[C@@H](Oc2nccc3c(N4CCOCC4)cccc23)CN1C(=O)[C@@H](NC(=O)OC(C)(C)C)C(C)(C)C)C(=O)NS(=O)(=O)C1CC1
Output: 100 to 1000 nM

Input: Identify EC50 associated with the molecule C=C[C@@H]1C[C@]1(NC(=O)[C@@H]1C[C@@H](Oc2nc(-c3ccoc3)cc3cc(OC)ccc23)CN1C(=O)[C@@H](NC(=O)OC(C)(C)C)C(C)(C)C)C(=O)NS(=O)(=O)C1CC1
Output: < 100 nM

Input: Identify EC50 associated with the molecule C=C[C@@H]1C[C@]1(NC(=O)[C@@H]1C[C@@H](Oc2nccc3c(OC)cccc23)CN1C(=O)[C@@H](NC(=O)OC(C)(C)C)C(C)(C)C)C(=O)NS(=O)(=O)C1CC1
Output: < 100 nM

Input: Identify EC50 associated with the molecule C=C[C@@H]1C[C@]1(NC(=O)[C@@H]1CC(Oc2nccc3cc(OC)ccc23)CN1C(=O)[C@@H](NC(=O)OC1CCC1)C(C)(C)C)C(=O)NS(=O)(=O)C1CC1 (stereo partly shown)
Output: < 100 nM

Input: Identify EC50 associated with the molecule C=CC1C[C@]1(NC(=O)[C@@H]1C[C@@H](Oc2nccc3cc(OC(C)C)ccc23)CN1C(=O)[C@@H](NC(=O)OC(C)(C)C)C(C)(C)C)C(=O)NS(=O)(=O)C1CC1 (stereo partly shown)
Output: < 100 nM
